Each recorded value in this set is attributed to PubChem BioAssay.

Entries annotated with measured composite z-score
# assay.notes: binders from COS7 lysate, DM2A8 probe, primary screen, torsin A project, cell lysate, small-molecule microarray, fluorescence 635/667 (AID 1065)
# run.parameters: higher = more signal, COS7 lysate expressing mutant human TOR1A
Keep it simple and answer with nothing but the number.

composite z-score reading for CO[C@H](C1CCCCC1)[C@H](C)C=CCC(=O)OCCCc1ccccc1 : 0.216

The value of composite z-score measured for the compound C[C@@H](c1ccccc1)N1C(=O)[C@H]2[C@H]3[C@H](O)[C@H](O)CC(=O)[C@H]3CC[C@H]2C1=O turned out to be 0.107

###

A collection of compounds and their measured composite z-score
# System: Wnt5a (protein binding on small-molecule microarray)
# assay.notes: Wnt5a binders on small-molecule microarray, primary screen, biophysical, 635/667 nm fluorescence (AID 1142);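 note: fluorescence read at 667 nm with signal to noise per printed feature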
# run.parameters: 635 nm fluorescence, higher = more signal
Output: the number by itself.

Worked cases, composite z-score given:
>>> value_measured("C#CCCCON=C1C[C@@H](O)[C@@H](O)[C@@H]2[C@@H]3C(=O)N(c4ccc(F)cc4F)C(=O)[C@@H]3CC[C@H]12")
0.166
>>> value_measured("C=CC1=C[C@H](O)[C@@H]2O[C@@H]2C12OCCCO2")
0.398
>>> value_measured("O=C1[C@H]2[C@H]3[C@H](O)[C@H](O)CC(=NOC[C@@H](O)COCc4ccco4)[C@H]3CC[C@H]2C(=O)N1C[C@@H]1CCCO1")
0.228

Lab entry: Wnt5a (protein binding on small-molecule microarray) assay, compound CCOC(=O)[C@H](CC(C)C)NC(=O)CCC1CC(OC(=O)NCCc2ccc(F)cc2)CC2(CCCC(COC(=O)NCCc3ccccc3OC)O2)O1 (some centres undefined) , composite z-score = 0.145

###

# target.under.test: Follistatin-related protein 3 (Homo sapiens) (UniProt O95633)
# Sequence (O95633 whole entry, looked up): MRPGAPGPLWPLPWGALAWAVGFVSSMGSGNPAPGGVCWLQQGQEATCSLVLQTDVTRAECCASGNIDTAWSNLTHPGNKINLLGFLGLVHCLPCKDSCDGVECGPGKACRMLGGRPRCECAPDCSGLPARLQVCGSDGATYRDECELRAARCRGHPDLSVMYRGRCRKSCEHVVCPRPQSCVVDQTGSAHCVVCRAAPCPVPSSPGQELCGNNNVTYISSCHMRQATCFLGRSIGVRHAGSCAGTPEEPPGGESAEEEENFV
# assay.notes: FSTL3 binders on small-molecule microarrays, primary screen, biochemical, small-molecule microarray, 635 nm fluorescence (AID 1105);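 note: score merges emission near 667 nm and signal to noise per printed spot across three slides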
# run.parameters: FSTL3 binding, higher = more signal
observation.type: composite z-score
Form: value (number only, do not type unit).

Summary for this molecule, CCN1C(=O)[C@H]2[C@H]3[C@H](O)[C@H](O)CC(=NO[C@@H](C)c4cn([C@H](CO)Cc5ccccc5)nn4)[C@@H]3CC[C@H]2C1=O : composite z-score is 1.14

###

# Tested on: Sonic hedgehog protein (Shh)
# assay.notes: small-molecule binders of Shh protein, primary screen, biochemical, small-molecule microarray, 635/667 nm fluorescence (AID 1151);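 note: Shh protein binding to compounds spotted on small-molecule microarray slides; score combines spot fluorescence intensity with signal-to-noise across triplicate slides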
# run.parameters: small-molecule microarray binding, 635 nm fluorescence; higher = more signal
Measured composite z-score by item

Item: COC(=O)CC=C[C@@H](C)[C@@H]1C=C[C@H](O)[C@@H](CO)O1 | composite z-score: 0.495

For record O=C(NN=C1C[C@@H](O)[C@@H](O)[C@@H]2[C@@H]3C(=O)N(C4CCCCC4)C(=O)[C@@H]3CC[C@H]12)OCc1ccccc1 the listed composite z-score is -0.554

For reference, reported composite z-score for COc1cccc([C@H]2Oc3ccc(OC)cc3C(=NOC[C@@H](C)[C@H](OCc3ccccc3)C(C)C)[C@@H]2O)c1 stands at 0.115

Short answer for CC(C)CON=C1C[C@@H](O)[C@@H](O)[C@@H]2[C@@H]3C(=O)N(C(C)(C)C)C(=O)[C@@H]3CC[C@H]12 : composite z-score was -0.739

###

# assay.notes: small-molecule binders of probe aLefty1, primary screen, biochemical, small-molecule microarray, 635/667 nm fluorescence (AID 1153);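 note: score merges spot fluorescence with signal-to-noise ratio from the scanned slide images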
# run.parameters: higher = more signal
Label Satisfied when composite z-score is at or above -0.05; anything below gets Not satisfied.

The following molecules have reported results that may help.
>>> answer_label("Cc1cc2c(nc1C)CCCCN2CC(C)ON=C1[C@H]2CCn3c(=O)n(-c4ccccc4)c(=O)n3[C@H]2[C@H](O)[C@@H]2O[C@H]12 (some centres not stated)")
"Not satisfied"
>>> answer_label("COCCNC(=O)OCC1CCCC2(CC(OC(=O)NCc3ccc4c(c3)OCO4)CC(CCC(=O)N[C@@H](C)C(=O)OC)O2)O1 (some centres not stated)")
"Satisfied"

Task item: Can COC(=O)[C@H](C)NC(=O)CCC1CC(OC(=O)NCCc2ccc(F)cc2)CC2(CCCC(COC(=O)NCc3cccc(C(F)(F)F)c3)O2)O1 (some centres not stated) be said to have composite z-score at or above -0.05?
Reply: Not satisfied

Task item: Threshold query (composite z-score >= -0.05) on COc1ccc(O[C@H]2C=C[C@@H](c3ccccc3)O[C@@H]2CON=CC[C@@H]2C=C[C@H](OC(C)=O)[C@@H](COC(C)=O)O2)cc1
Reply: Satisfied

Task item: Threshold query (composite z-score >= -0.05) on CCOC(=O)CCN1C(=O)[C@H]2[C@H]3[C@H](O)[C@H](O)CC(=NOCc4ccccc4)[C@H]3CC[C@H]2C1=O
Reply: Satisfied

Task item: Threshold query (composite z-score >= -0.05) on C[C@H]1COC(=O)[C@@H]2CCCN2C(=O)[C@@H](C)COC(=O)[C@H](Cc2ccccc2)NC1=O
Reply: Not satisfied

###

# assay.notes: S. cerevisiae growth modulation with rapamycin, primary screen, strain BY4716, OD600, 96 h (AID 1091); note: test concentration not given here
# run.parameters: higher = more signal, called active from +8 up or from −8 down
observation.type: z-score
Kindly provide the number alone.

Sample answers from the record:
>>> value_measured("COC(=O)[C@H](C)NC(=O)CCC1CC(OC(=O)NCc2ccc3c(c2)OCO3)CC2(CCCC(COC(=O)NCC3CCCCC3)O2)O1 (some centres not stated)")
1.45
>>> value_measured("CC(CCN1CCc2nc(-c3ccccc3)c(-c3ccccc3)cc2C1)=NOC[C@@H](O)[C@H]1O[C@@H]2OC(C)(C)O[C@@H]2[C@H]1O")
-4.56
>>> value_measured("CCOC(=O)[C@H](CC(C)C)NC(=O)CCC1CC(OC(=O)NCCc2ccc(F)cc2)CC2(CCCC(COC(=O)NCCOc3ccccc3)O2)O1 (some centres not stated)")
-0.445
>>> value_measured("COC(=O)CC=C[C@@H](C)[C@H](OCc1cccc(-c2ccccc2)c1)C1CCCCC1")
1.45
>>> value_measured("COC(=O)CC=C[C@@H](C)[C@@H](C=NOCC[C@@H]1C=C[C@H](OC(C)=O)[C@@H](COC(C)=O)O1)NS(=O)(=O)c1ccc(C)cc1")
-0.448
>>> value_measured("O=C1C=C[C@@H](O)[C@@H]2[C@@H]3C(=O)N(C[C@@H]4CCCO4)C(=O)[C@@H]3CC[C@@H]12")
0.818

Now look at this entry.
Entry CCN1C(=O)[C@H]2[C@H]3[C@H](O)[C@H](O)CC(=O)[C@@H]3CC[C@H]2C1=O ; z-score = -0.139

###

# Test system: PRMT1 (protein arginine N-methyltransferase 1)
# assay.notes: PRMT1 binders on small-molecule microarrays, primary screen, biochemical, small-molecule microarray, 635 nm fluorescence (AID 1088);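 note: binding of Prmt1 protein to compounds spotted on small-molecule microarray slides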
# run.parameters: small-molecule microarray binding, higher = more signal
Record YES whenever composite z-score is at 0.6 or higher; record NO when lower.

Example entries begin here.
>>> answer_label("CC(C)=CCCC(C)=CCON=C1C[C@@H](O)[C@@H](O)[C@@H]2[C@@H]3C(=O)N(C(C)(C)C)C(=O)[C@@H]3CC[C@H]12")
"YES"
>>> answer_label("CC(C)CON=C1C[C@@H](O)[C@@H](O)[C@@H]2[C@@H]3C(=O)N(c4cccc(Oc5ccccc5)c4)C(=O)[C@@H]3CC[C@@H]12")
"YES"

Task item: Could you please find out whether C[C@@H]1NC(=O)[C@@H](C)COC(=O)[C@H](C)NC(=O)[C@@H](C)COC1=O has composite z-score that meets 0.6 or exceeds it?
Reply: NO

Task item: Record COc1cc(O)c(C(=O)C=Cc2ccc3c(c2)OCO3)c(OC)c1 ; criterion: composite z-score no lower than 0.6. Met?
Reply: NO

Task item: Hello, I need to know if C#CCCCON=C1[C@H]2CCn3c(=O)n(C)c(=O)n3[C@H]2[C@H](O)[C@@H]2O[C@H]12 has measured composite z-score not below 0.6. Thanks!
Reply: NO

Task item: Assess whether reported composite z-score for C#CCCCON=C1C[C@@H](O)[C@@H](O)[C@@H]2[C@@H]3C(=O)N(C(C)(C)C)C(=O)[C@@H]3CC[C@@H]12 sits at 0.6 or higher.
Reply: NO

Task item: Assess whether reported composite z-score for O=c1n(Cc2cc3c(cc2Cl)OCO3)c(=O)n2n1CC[C@@H]1C(=NOCc3ccccc3)[C@H]3O[C@H]3[C@@H](O)[C@@H]12 sits at 0.6 or higher.
Reply: NO

Task item: Say whether O=C1[C@H]2[C@H]3[C@H](O)[C@H](O)CC(=NOC[C@@H](O)COCc4ccco4)[C@@H]3CC[C@H]2C(=O)N1C[C@@H]1CCCO1 shows composite z-score of 0.6 or more.
Reply: YES
